Test Method Notes: in vitro
Test Context: African green monkey
Where a name gives a salt, the structure may show the parent alone.
Please provide measured CC50 for the entries that follow.
Numbers only here, please. The scale is µM.

Which CC50 reading was recorded for the compound CC1C2CC3(C(=O)N[C@H]4CC[C@H](N)CC4)CC1CC(c1ccccc1)(C2)C3 (some centres unmarked) ?
13.3

Which CC50 reading was recorded for the compound CCC1(Cl)C2CC3(C(=O)N4CC[C@H](N)C(C)(C)C4)CC1CC(c1ccccc1)(C2)C3 (some centres unmarked) ?
14.7

Which CC50 reading was recorded for the compound CC(C)CC1C2CC3(C(=O)N[C@H]4CC[C@H](N)CC4)CC1CC(c1ccccc1)(C2)C3 (some centres unmarked) ?
5.8

Which CC50 reading was recorded for the compound N[C@H]1CC[C@H](NC(=O)C23CC4CC(c5ccccc5)(CC(C2)C4CCF)C3)CC1 (some centres unmarked) ?
25.1

Which CC50 reading was recorded for the compound C[C@]12CC3CC(C(=S)N4CCC(N)CC4)(C1)C[C@@](c1ccccc1)(C3)C2 ?
4.09

Which CC50 reading was recorded for the compound C[C@]12CC3CC(C(=S)NC4CCNCC4)(C1)C[C@@](c1ccccc1)(C3)C2 ?
4.72

Which CC50 reading was recorded for the compound C[C@]12CC3CC(C(=S)N[C@H]4CC[C@H](CN)CC4)(C1)C[C@@](c1ccccc1)(C3)C2 ?
2.86

Which CC50 reading was recorded for the compound N[C@H]1CC[C@H](NC(=O)C23CC4CC(c5ccccc5)(CC(C2)C4CC(F)F)C3)CC1 (some centres unmarked) ?
22.2

Which CC50 reading was recorded for the compound CCC=C1C2CC3(C(=S)N[C@H]4CC[C@H](N)CC4)CC1CC(c1ccccc1)(C2)C3 (relative stereo) [Example D2] ?
1.78

Which CC50 reading was recorded for the compound CSCC12CC3CC(C(=O)N[C@H]4CC[C@H](N)CC4)(C1)CC(c1ccccc1)(C3)C2 (mixture of isomers) ?
34.6

Which CC50 reading was recorded for the compound N[C@H]1CC[C@H](NC(=O)C23CC4CC(CCl)(C2)CC(c2ccccc2)(C4)C3)CC1 (mixture of isomers) [Example E1, hydrochloride] ?
13.8

Which CC50 reading was recorded for the compound C[C@@]12CC3CC(C(=S)N[C@H]4CC[C@H](N)CC4)(C1)C[C@](c1ccccc1)(C3)C2 ?
3.72

Which CC50 reading was recorded for the compound CCC1C2CC3(C(=O)N4CC[C@H](N)C(C)(C)C4)CC1CC(c1ccccc1)(C2)C3 (some centres unmarked) ?
12.3

Which CC50 reading was recorded for the compound C[C@]12CC3CC(C(=S)N[C@H]4CN5CCC4CC5)(C1)C[C@@](c1ccccc1)(C3)C2 ?
1.77

Which CC50 reading was recorded for the compound CC1(C)CN(C(=S)[C@@]23C[C@H]4C[C@@](C)(C2)C[C@](c2ccccc2)(C4)C3)CC[C@@H]1N ?
3.8

Which CC50 reading was recorded for the compound N[C@H]1CC[C@H](NC(=O)C23CC4CC(CSc5ccccc5)(C2)CC(c2ccccc2)(C4)C3)CC1 (mixture of isomers) ?
4.75

Which CC50 reading was recorded for the compound CCCC1C2CC3(C(=O)N[C@H]4CC[C@H](N)CC4)CC1CC(c1ccccc1)(C2)C3 (some centres unmarked) ?
4.65

Which CC50 reading was recorded for the compound N[C@H]1CC[C@H](NC(=O)C23CC4CC(c5ccccc5)(CC(C2)C4CCCl)C3)CC1 (some centres unmarked) ?
7.27

Which CC50 reading was recorded for the compound CCC1C2CC3(C(=O)N[C@H]4CC[C@H](N)CC4)CC1CC(c1ccccc1)(C2)C3 (some centres unmarked) ?
12.6

Which CC50 reading was recorded for the compound CC1(C)CN(C(=O)C23CC4CC(CCl)(C2)CC(c2ccccc2)(C4)C3)CC[C@@H]1N (mixture of isomers) [Example E2] ?
36.9

// provenance: patent US20240238265A1
